Reference source for all entries: ChEMBL document CHEMBL2311324

Reported CC50 at 72 h values for the following compounds.
Experiment: Cytotoxicity against human HeLa cells expressing CD4, CCR5 after 3 days
Assay type: cell-based
Details: HeLa cells expressing CD4 and CCR5
Enter your answer as a number in µM; do not include the unit.

Reference set, count: 2
C[C@@H]1CN(C(=O)c2ccccc2)CCN1C(=O)C(=O)c1c[nH]c2ccccc12 ... 195
C[C@@H]1CN(C(=O)c2ccccc2)CCN1C(=O)C(=O)c1c[nH]c2c(-c3cc4ccccc4s3)ccnc12 ... 170

Lookup: Complete the entry with CC50 at 72 h for Cc1csc(-c2ccnc3c(C(=O)C(=O)N4CCN(C(=O)c5ccccc5)[C@H](C)C4)c[nH]c23)c1
Found: 123

###

Test: AUC in rat at 5 mg/kg, po
Type: ADME, organism-based, Plasma
Parameters: dose 5 mg/kg, route oral
Conditions: plasma
recorded_metric: AUC (µM·h)
Enter your answer as a number in µM·h; do not include the unit.

Lookup: Complete the entry with AUC for COc1ccnc2[nH]cc(C(=O)C(=O)N3CCN(C(=O)c4ccccc4)C[C@H]3C)c12
Found: 1.3

###

Reported CC50 at 72 h values for the following molecules.
Test: Cytotoxicity against human HeLa cells expressing CD4, CCR5 after 3 days
Format: cell-based
Details: HeLa cells expressing CD4 and CCR5

Lookup: Complete the entry with CC50 at 72 h for COc1cccc(-c2ccnc3c(C(=O)C(=O)N4CCN(C(=O)c5ccccc5)CC4)c[nH]c23)n1
Found: 174 µM

Lookup: Complete the entry with CC50 at 72 h for O=C(C(=O)N1CCN(C(=O)c2ccccc2)CC1)c1c[nH]c2c(-n3cncn3)ccnc12
Found: > 300 µM

###

Assay: Cytotoxicity against human HeLa cells expressing CD4, CCR5 after 3 days
Format: cell-based
Settings: HeLa cells expressing CD4 and CCR5
Reported CC50 at 72 h values for the following compounds.
Enter your answer as a number in µM; do not include the unit.

Reference set, count: 4
C[C@@H]1CN(C(=O)C(=O)c2c[nH]c3c(-c4nccs4)ccnc23)CCN1C(=O)c1ccccc1 ... 35
CC(=O)c1ccc(-c2ccnc3c(C(=O)C(=O)N4CCN(C(=O)c5ccccc5)CC4)c[nH]c23)s1 ... 268
C[C@@H]1CN(C(=O)c2ccccc2)CCN1C(=O)C(=O)c1c[nH]c2c(-c3cncnc3)ccnc12 ... 35.3
O=C(C(=O)N1CCN(C(=O)c2ccccc2)CC1)c1c[nH]c2c(-n3nc4ccccc4n3)ccnc12 ... 124

Lookup: Complete the entry with CC50 at 72 h for O=C(C(=O)N1CCN(C(=O)c2ccccc2)CC1)c1c[nH]c2c(-n3nnc4ccccc43)ccnc12
Found: 246

Lookup: Complete the entry with CC50 at 72 h for COc1cncc2[nH]cc(C(=O)C(=O)N3CCN(C(=O)c4ccccc4)C[C@H]3C)c12
Found: 6

###

Assay: Cytotoxicity against human HeLa cells expressing CD4, CCR5 after 3 days
Format: cell-based
Conditions: HeLa cells expressing CD4 and CCR5
Mark t only when CC50 at 72 h stays strictly below 200 µM. Values equal to the cut-off are f.

Below are worked cases with known answers.
C[C@@H]1CN(C(=O)c2ccccc2)CCN1C(=O)C(=O)c1c[nH]c2c(-c3ncco3)ccnc12 ... f
C[C@@H]1CN(C(=O)C(=O)c2c[nH]c3c(-n4nc5ccccc5n4)ccnc23)CCN1C(=O)c1ccccc1 ... t
Cc1ccnc2c(C(=O)C(=O)N3CCN(C(=O)c4ccccc4)C[C@H]3C)c[nH]c12 ... f
O=C(C(=O)N1CCN(C(=O)c2ccccc2)CC1)c1c[nH]c2c(-c3ncco3)ccnc12 ... f
C[C@@H]1CN(C(=O)C(=O)c2c[nH]c3c(Cl)ccnc23)CCN1C(=O)c1ccccc1 ... f
O=C(C(=O)N1CCN(C(=O)c2ccccc2)CC1)c1c[nH]c2c(-c3nccs3)ccnc12 ... t
COc1cccc2[nH]cc(C(=O)C(=O)N3CCN(C(=O)c4ccccc4)C[C@H]3C)c12 ... f
C[C@@H]1CN(C(=O)c2ccccc2)CCN1C(=O)C(=O)c1c[nH]c2ncccc12 ... f

Now consider a different compound.
Lookup: Determine whether this compound shows CC50 at 72 h lower than 200 µM (ties excluded): C[C@@H]1CN(C(=O)c2ccccc2)CCN1C(=O)C(=O)c1c[nH]c2c(-c3ccsc3)ccnc12
Found: t
